assay: chemical genetic growth profiling, strain panel (AID 1159580);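 also: tested at 20 µM; growth read once vehicle control cultures reached saturation at 30 °C; 1 = growth at the plate median or of vehicle wells; lower values mean less growth of the strain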; settings: S. cerevisiae deletion strains, growth OD, locus YPL106C, strain sse1, hits give low values
Screen size: about 5,500 compounds; about 2,000 (36%) were called active. Roughly 18% stayed inconclusive and do not appear here. The list shows a part of the results.

compound | normalized growth
COC(=O)[C@@H]1OC(=O)C2OC23[C@@]1(C)CCC1[C@@]2(C)CCC(=O)C(C)(C)C2C[C@@H](OC(C)=O)[C@]13C (some centres not stated) | 1.01 (inactive)
Oc1c(Cl)cc(Cl)c(Cl)c1Cc1c(O)c(Cl)cc(Cl)c1Cl | 0.1 (active)
O=NN(CCCl)C(=O)NCCCl | 1.05 (inactive)
FC(F)(F)c1cccc(N2CCNCC2)c1 | 0.947 (inactive)
COc1ccc2oc3ccccc3c(=O)c2c1 | 0.78 (active)
C=CCS(=O)C[C@H](N)C(=O)O (some centres not stated) | 0.929 (inactive)
COC[C@]12CN(C=O)C3[C@@H]4[C@H](OC)C1[C@]3(C1CC3(O)C(OC)C(O)C4(OC(C)=O)C1C3OC(=O)c1ccccc1)[C@@H](OC)C[C@H]2O (some centres not stated) | 0.999 (inactive)
